Measured TGI, listed per entry for reference.
Test system: M14 melanoma
Assay: NCI tumour cell line growth inhibition, 48 h

1. Cn1c(=O)c2[nH]c(SCc3ccccn3)nc2n(C)c1=S | > 100 µM
2. CC(=S)N=Cc1c(O)cc(C)oc1=O | > 100 µM

Need TGI of CC[C@@H]1CN(C)[C@H]2Cc3c([nH]c4ccccc34)C(=O)C[C@H]1C2C(=O)OC (stereo partly drawn) , thanks.
> 100 µM
